Assignment: determine reported koff for the given binders.
system.name: T1, recombinant extracellular domain of hASIC1a (hASIC1a-ECD) (human, UniProt P78348 67-427, limits assumed)
T1 construct: extracellular domain; ASIC1a is one splice isoform of it; also called trimeric ectodomain of hASIC1a
T1 sequence (looked up): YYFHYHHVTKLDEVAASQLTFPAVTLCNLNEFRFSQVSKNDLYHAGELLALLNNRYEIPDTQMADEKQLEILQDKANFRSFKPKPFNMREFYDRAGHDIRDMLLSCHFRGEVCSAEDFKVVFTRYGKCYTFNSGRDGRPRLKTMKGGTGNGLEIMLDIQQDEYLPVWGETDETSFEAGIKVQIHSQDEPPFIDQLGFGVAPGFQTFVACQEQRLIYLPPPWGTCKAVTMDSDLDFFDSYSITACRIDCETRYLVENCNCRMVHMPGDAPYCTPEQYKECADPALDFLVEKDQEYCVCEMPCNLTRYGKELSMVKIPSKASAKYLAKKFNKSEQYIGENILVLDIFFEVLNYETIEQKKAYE
experimental.protocol: SPR, Biacore T200, hASIC1a-ECD immobilized, IgG1 as analyte
One number for each entry, in s⁻¹.

# map each binder to its koff
1. ASC06-02-IgG1 (antibody, V domains shown, Full length IgG1) VH: QVQLQQSGGGLVQPGGSLRLSCAASGFTFSSYAMSWVRQAPGKGLEWVSAISGSGGSTYYADSVKGRFTISRDNSKNTLYLQMNSLRAEDTAVYYCAKDSFFGRAKGSWGQGTLVTVSS VL: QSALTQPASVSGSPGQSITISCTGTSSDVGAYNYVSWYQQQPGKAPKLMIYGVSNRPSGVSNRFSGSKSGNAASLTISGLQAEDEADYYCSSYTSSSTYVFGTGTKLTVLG
2. ASC06-01-IgG1 (antibody, V domains shown, Full length IgG1) VH: QVQLQQSGGGLVQPGGSLRLSCAASGFTFSSYAMSWVRQAPGKGLEWVSAISGSGGSTYYADSVKGRFTISRDNSKNTLYLQMNSLRAEDTAVYYCAKDSYFGYSKGDWGQGTLVTVSS VL: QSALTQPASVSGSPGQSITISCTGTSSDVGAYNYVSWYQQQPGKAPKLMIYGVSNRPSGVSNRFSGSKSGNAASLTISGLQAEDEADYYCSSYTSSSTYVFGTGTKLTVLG
3. ASC06-IgG1 (antibody, V domains shown, Tested as full length IgG1; also called WT antibody ASC06-IgG1; parental ASC06-IgG1 antibody) VH: QVQLQQSGGGLVQPGGSLRLSCAASGFTFSSYAMSWVRQAPGKGLEWVSAISGSGGSTYYADSVKGRFTISRDNSKNTLYLQMNSLRAEDTAVYYCAKDSFYGYSKGDWGQGTLVTVSS VL: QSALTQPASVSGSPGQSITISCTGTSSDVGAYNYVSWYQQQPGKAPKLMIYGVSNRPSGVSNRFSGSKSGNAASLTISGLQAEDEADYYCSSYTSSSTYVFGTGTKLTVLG
4. ASC06-03-IgG1 (antibody, V domains shown, Full length IgG1) VH: QVQLQQSGGGLVQPGGSLRLSCAASGFTFSSYAMSWVRQAPGKGLEWVSAISGSGGSTYYADSVKGRFTISRDNSKNTLYLQMNSLRAEDTAVYYCAKDSFYGRAKGSWGQGTLVTVSS VL: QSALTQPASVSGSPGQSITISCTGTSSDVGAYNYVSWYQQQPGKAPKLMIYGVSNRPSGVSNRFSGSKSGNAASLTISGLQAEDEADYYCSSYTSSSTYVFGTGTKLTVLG

Completion:
[0.000168, 0.000997, 0.0013, "8.2e-05"]
